Target or system MAPK14 (human) (UniProt Q16539): recorded IC50 listed per item.

Solved cases (10 shown):
[
  {
    "COMPOUND": "Cc1nc(-c2ccc(F)cc2)c(-c2nc(C(=O)NC3CCCCC3C)cs2)s1 (centres undefined)",
    "RESULT VALUE": "≤ 1 µM"
  },
  {
    "COMPOUND": "CC(C)NC(=O)c1csc(-c2c(-c3ccc(F)cc3)noc2CN2CCCC2CO)n1 (centres undefined)",
    "RESULT VALUE": "≤ 1 µM"
  },
  {
    "COMPOUND": "COc1ccc(CNC(=O)c2csc(-c3sc(C)nc3-c3ccc(F)cc3)n2)cc1",
    "RESULT VALUE": "≤ 1 µM"
  },
  {
    "COMPOUND": "Cc1nc(-c2ccc(F)cc2)c(-c2nc(C(=O)NCCc3ccc(Cl)cc3)cs2)s1",
    "RESULT VALUE": "≤ 1 µM"
  },
  {
    "COMPOUND": "Cc1nc(-c2ccc(F)cc2)c(-c2nc(C(=O)NCc3ccc(Cl)cc3)cs2)s1",
    "RESULT VALUE": "≤ 1 µM"
  },
  {
    "COMPOUND": "Cc1nc(-c2ccc(F)cc2)c(-c2nc(C(=O)NCC3CCCO3)cs2)s1 (centres undefined)",
    "RESULT VALUE": "≤ 1 µM"
  },
  {
    "COMPOUND": "Cc1nc(-c2ccc(F)cc2)c(-c2nc(C(=O)N3CCCC4CCCCC43)cs2)s1 (centres undefined)",
    "RESULT VALUE": "≤ 1 µM"
  },
  {
    "COMPOUND": "Cc1nc(-c2ccc(F)cc2)c(-c2nc(C(=O)NCc3ccc(Cl)cc3Cl)cs2)s1",
    "RESULT VALUE": "≤ 1 µM"
  },
  {
    "COMPOUND": "CC(C)NC(=O)c1csc(-c2oc(CNC(=O)c3cc([N+](=O)[O-])ccc3Cl)nc2-c2ccc(F)cc2)n1",
    "RESULT VALUE": "≤ 1 µM"
  },
  {
    "COMPOUND": "CC(C)NC(=O)c1csc(-c2oc(CN3CCN(C(=O)C=O)CC3)nc2-c2ccc(F)cc2)n1",
    "RESULT VALUE": "≤ 1 µM"
  }
]

# input compound: "CC(C)NC(=O)c1csc(-c2oc(CN3CCN(C(=O)Cc4ccc(C(F)(F)F)cc4)CC3)nc2-c2ccc(F)cc2)n1" ; wanted: its IC50
≤ 1 µM

# input compound: "CC(C)NC(=O)c1csc(-c2oc(CNC(=O)c3cc(F)c(F)cc3[N+](=O)[O-])nc2-c2ccc(F)cc2)n1" ; wanted: its IC50
≤ 1 µM

# input compound: "CC(C)NC(=O)c1csc(-c2oc(CNC(=O)c3cc(C(C)C)cc(C(C)C)c3O)nc2-c2ccc(F)cc2)n1" ; wanted: its IC50
≤ 1 µM

# input compound: "Cc1nc(-c2ccc(F)cc2)c(-c2nc(C(=O)Nc3ccc(N(C)C)cc3)cs2)s1" ; wanted: its IC50
≤ 1 µM
